Experimental target: T1, human CD71 extracellular domain (CD71-ECD) (human, UniProt P02786 89-760)
T1 construct: also called hCD71; human CD71-ECD
T1 sequence (P02786 89-760): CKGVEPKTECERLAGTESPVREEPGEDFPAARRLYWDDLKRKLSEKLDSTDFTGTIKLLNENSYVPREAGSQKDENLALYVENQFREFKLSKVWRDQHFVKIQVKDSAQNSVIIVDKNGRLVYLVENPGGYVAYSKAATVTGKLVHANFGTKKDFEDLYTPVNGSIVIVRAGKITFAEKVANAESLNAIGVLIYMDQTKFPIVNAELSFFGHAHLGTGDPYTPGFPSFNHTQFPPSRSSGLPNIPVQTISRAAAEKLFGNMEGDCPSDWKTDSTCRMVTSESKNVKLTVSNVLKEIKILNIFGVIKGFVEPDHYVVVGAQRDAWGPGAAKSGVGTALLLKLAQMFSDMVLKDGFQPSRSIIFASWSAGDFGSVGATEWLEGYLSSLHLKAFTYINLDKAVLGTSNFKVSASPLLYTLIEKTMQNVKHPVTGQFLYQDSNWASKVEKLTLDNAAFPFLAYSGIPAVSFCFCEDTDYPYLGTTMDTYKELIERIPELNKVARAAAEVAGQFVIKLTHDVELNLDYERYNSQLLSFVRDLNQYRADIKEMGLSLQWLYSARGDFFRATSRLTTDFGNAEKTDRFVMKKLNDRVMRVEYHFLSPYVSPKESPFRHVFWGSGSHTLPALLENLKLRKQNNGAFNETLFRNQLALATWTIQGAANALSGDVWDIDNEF
Assay explanation: primary ELISA; note: test concentration or dose not given here
Quantity measured: RLU
Note to self: number, then unit, no commentary.

Let me know recorded RLU for CD71-binding FN3 domain SEQ ID NO: 280 (designed binder) MSLPAPKNLVVSRVTEDSARLSWTALDAAFDSFEIGYFENLYLGEAIVLTVPGSERSYDLTGLKPGTEYWVQIGGVKGGNWSAPLSAIFTT , thanks.
3.21e+06 RLU

Note RLU for the binder shown: CD71-binding FN3 domain SEQ ID NO: 304 (designed binder) MSLPAPKNLVVSRVTEDSARLSWTAPDAAFDSFEIGYFENLYLGEAIVLTVPGSERSYDLTGLKPGTEYVVFIGGVKGGVWSVPLSAIFTT
3.39e+06 RLU
